- system: Complement C1q (UniProt P02745;P02746;P02747 P02745:23-245,P02746:28-253,P02747:29-245)
- assay: filter; MgPBS 37C; SEQ 12 in listing differs from Table 2 near the 3' end
- conditionLabel: tags: Quidel; chain copies: 6
assayEndpoint: Kd (nM)
Dear colleague, please return just the value in nM, with no unit written.

Exercise: Reported Kd, binder C1q clone 50 (ssRNA, 2'-NH2 pyrimidines) RNA: GGGAGGACGAUGCGGGUGGAGUGGAGGUAUAACGGCCGGUAGCGCAUCCCACUCGGGUCUGUGCUAGACGACUCGCCCGA : ____
Solution: 0.979
